Measured TGI, listed per entry for reference.
- Test system: SF-295 CNS
- test-name: NCI tumour cell line growth inhibition, 48 h

Would you please look over these solved cases?
| compound | TGI |
| --- | --- |
| CC(C)C(=O)CC(Sc1ccc(N)cc1)c1ccccc1 (stereo not given) | > 100 µM |
| COC(=O)C1C(O)C(C)C(O)C(C)/C=C\C=C(C)C(=O)Nc2c(C)c(OC(C)=O)c3c(c2O)C(=O)C(C)=C2OCOC(=C23)C(C)=CC(C)(O)C(O)C(C)C1O (stereo not given) | > 100 µM |
| C=C1C(=O)OC2C1C(OC(=O)/C(C)=C/C)CC(O)(CCl)C1C(OC(C)=O)C=C(C)C21O (stereo not given) | > 100 µM |
| COC(=O)C1=C(O)C(C(=O)OC)[C@]2(O)[C@H](C(=O)OC)[C@H]1C[C@@H](c1ccc(O)cc1)[C@H]2C(=O)OC (stereo not given in full) | 58.8 µM |
| CCCCC1=C(C(=O)N2CCOCC2)C2(OCCO2)C1Cl (stereo not given) | > 100 µM |
| C=CCN1C(=O)/C(=C/c2ccccc2)N=C1SC/C=C/C | > 100 µM |
| CCCOP1(=O)C=C(C)C(Cl)=C(C)C1 (stereo not given) | > 100 µM |
| NC(=O)c1csc(C2O[C@@H](COP(=O)(O)OP(=O)(O)OC[C@H]3OC(n4cnc5c(N)ncnc54)[C@H](O)[C@@H]3O)[C@H](O)[C@@H]2O)n1 (stereo not given in full) | > 100 µM |
| O=C(Nc1cccc(NS(=O)(=O)c2ccc(F)cc2)c1)c1ccc(-c2ccccc2)cc1 | 11.8 µM |

Moving on to another compound below.
Recorded result, COC(=O)CC(SCCO)SCCO , TGI: > 100 µM
